Listed compounds paired with reported pEC50
# Target desc: hTGR5-WT (Homo sapiens, UniProt Q8TDU6)
# Sequence (Q8TDU6 whole entry): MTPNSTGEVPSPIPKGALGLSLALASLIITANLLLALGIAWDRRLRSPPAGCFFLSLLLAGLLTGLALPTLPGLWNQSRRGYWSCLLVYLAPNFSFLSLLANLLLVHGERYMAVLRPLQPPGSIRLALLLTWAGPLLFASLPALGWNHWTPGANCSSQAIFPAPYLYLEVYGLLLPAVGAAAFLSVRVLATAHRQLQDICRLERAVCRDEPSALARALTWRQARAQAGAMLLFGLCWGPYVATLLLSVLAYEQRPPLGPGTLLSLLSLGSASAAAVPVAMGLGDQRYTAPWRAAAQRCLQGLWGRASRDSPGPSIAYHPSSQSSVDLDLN
# Experiment notes: CRE-luciferase reporter assay in HEK293 cells transfected with hTGR5-WT
When answering, recall that pEC50 equals minus log10 of the concentration in mol/L, and write that number alone.

CC1(C)OC(=O)C=C[C@]2(C)[C@H]3CC[C@@]4(C)[C@H](c5ccoc5)OC(=O)[C@H]5O[C@]54[C@]3(C)C(=O)C[C@@H]12 = 3.83

Request: Can you share its pEC50? I mean this compound: CC(=O)O[C@H]1CC(=O)OC(C)(C)[C@@H]2CC(=O)[C@]3(C)[C@H](CC[C@@]4(C)[C@H](c5ccoc5)OC(=O)[C@H]5O[C@]543)[C@@]12C
Result: 4.63

Each recorded value in this set is attributed to paper PMC5464637.
